Molecular target: Pdr3 (UniProt P33200)
Sequence: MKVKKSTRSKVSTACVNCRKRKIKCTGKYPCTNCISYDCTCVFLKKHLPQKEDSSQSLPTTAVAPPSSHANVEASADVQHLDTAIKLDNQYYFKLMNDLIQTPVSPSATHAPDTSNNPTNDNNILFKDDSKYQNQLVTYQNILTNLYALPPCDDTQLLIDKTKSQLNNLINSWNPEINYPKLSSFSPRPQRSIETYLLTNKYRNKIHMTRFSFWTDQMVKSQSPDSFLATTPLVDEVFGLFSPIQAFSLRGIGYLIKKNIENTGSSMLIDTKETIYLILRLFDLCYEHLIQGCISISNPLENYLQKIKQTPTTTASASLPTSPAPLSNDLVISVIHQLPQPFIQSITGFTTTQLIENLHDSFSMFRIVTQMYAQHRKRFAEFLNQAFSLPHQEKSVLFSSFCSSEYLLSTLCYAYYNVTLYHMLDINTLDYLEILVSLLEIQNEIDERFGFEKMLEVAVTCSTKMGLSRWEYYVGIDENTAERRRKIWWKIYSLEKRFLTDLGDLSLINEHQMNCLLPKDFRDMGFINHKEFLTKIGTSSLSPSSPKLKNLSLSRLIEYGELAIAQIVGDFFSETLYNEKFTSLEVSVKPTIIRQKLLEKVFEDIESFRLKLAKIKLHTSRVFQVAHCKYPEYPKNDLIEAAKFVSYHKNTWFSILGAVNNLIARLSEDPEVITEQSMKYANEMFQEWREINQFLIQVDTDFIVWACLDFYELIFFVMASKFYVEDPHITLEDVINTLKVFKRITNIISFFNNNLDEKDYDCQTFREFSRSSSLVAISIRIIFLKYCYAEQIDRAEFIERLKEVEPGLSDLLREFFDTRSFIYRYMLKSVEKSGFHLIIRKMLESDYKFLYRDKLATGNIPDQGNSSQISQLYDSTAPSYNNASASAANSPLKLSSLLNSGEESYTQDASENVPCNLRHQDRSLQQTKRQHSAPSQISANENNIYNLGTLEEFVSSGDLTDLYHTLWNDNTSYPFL
Assay: PBM E-score (8-mer binding enrichment) (E-score (-0.5 to 0.5)); higher = stronger / more preferred TF binding
Conditions: protein concentration: 200 nM; construct: GST-full length
The full ranking holds about 33,000 sequences; the median of “E-score (-0.5 to 0.5)” is about -0.035, and the highest 2% start at about 0.35. The list comes from a sample in which the highest values are over-represented; it also holds close analogues and randomly drawn sequences.
Would you mind classing the entries by PBM E-score? Ranges: low range (below 0.03), mid range (0.03 to below 0.3), high range (0.3 or more)

{"columns": ["polymer_sequence", "category"],
 "data": [
  ["GCTCCGCA", "mid range"],
  ["GTGGTTCA", "mid range"],
  ["GCTCCGGA", "high range"],
  ["CCCACCCA", "mid range"],
  ["GCGTACGA", "low range"],
  ["CCTCCGGC", "high range"]
]}

// bin(item) where item = CGTCGGAG
mid range

// bin(item) where item = CACCCGTA
mid range

// bin(item) where item = ACTCCGGC
high range

* * *

Molecular target: Pdr3 (UniProt P33200)
Sequence: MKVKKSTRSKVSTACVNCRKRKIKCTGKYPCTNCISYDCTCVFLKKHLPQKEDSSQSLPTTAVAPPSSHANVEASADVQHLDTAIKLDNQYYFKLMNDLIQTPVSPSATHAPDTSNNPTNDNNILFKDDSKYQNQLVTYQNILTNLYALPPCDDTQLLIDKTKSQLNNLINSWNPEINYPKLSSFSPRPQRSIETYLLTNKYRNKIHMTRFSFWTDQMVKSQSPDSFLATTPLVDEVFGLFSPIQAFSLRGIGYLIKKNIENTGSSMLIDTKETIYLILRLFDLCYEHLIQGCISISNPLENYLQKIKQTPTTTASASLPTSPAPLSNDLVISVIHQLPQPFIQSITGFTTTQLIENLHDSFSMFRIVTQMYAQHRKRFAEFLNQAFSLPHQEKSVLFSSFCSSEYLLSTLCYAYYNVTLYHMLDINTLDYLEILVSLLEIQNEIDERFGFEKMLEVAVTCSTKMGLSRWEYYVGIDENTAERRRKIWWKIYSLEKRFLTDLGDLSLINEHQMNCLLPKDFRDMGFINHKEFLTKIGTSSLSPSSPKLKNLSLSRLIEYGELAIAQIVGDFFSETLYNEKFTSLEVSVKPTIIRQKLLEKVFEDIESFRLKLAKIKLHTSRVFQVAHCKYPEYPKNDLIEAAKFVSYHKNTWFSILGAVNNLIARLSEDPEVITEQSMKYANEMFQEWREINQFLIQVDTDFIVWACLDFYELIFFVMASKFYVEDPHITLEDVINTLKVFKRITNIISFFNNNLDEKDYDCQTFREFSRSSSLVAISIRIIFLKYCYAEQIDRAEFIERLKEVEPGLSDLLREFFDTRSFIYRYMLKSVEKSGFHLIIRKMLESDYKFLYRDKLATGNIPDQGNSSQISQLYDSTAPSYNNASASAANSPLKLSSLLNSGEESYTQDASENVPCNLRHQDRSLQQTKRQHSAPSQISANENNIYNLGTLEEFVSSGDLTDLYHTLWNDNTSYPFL
Assay: PBM E-score (8-mer binding enrichment) (E-score (-0.5 to 0.5)); higher = stronger / more preferred TF binding
Conditions: protein concentration: 200 nM; construct: GST-full length
Whole data set: some 33,000 sequences, median “E-score (-0.5 to 0.5)” near -0.035, cut for the highest 2% near 0.35. The list comes from a sample in which the highest values are over-represented; it also holds close analogues and randomly drawn sequences.
assay_endpoint: PBM E-score
No unit in the answer, only the number.

Worked examples follow.
{"columns": ["polymer_sequence", "study_target", "PBM E-score"],
 "data": [
  ["AGGATCCA", "Pdr3 (UniProt P33200)", -0.0311],
  ["CTCCGGTA", "Pdr3 (UniProt P33200)", 0.321],
  ["CGAACTTA", "Pdr3 (UniProt P33200)", 0.0051],
  ["CTTTCTGC", "Pdr3 (UniProt P33200)", -0.0975],
  ["AACGGTAT", "Pdr3 (UniProt P33200)", -0.0131],
  ["CAGATCCC", "Pdr3 (UniProt P33200)", 0.0667]
]}

Tell us which PBM E-score value is on record for CGGTCGAA
0.0584

Tell us which PBM E-score value is on record for ATCCGAAA
0.248

Tell us which PBM E-score value is on record for CCATTCAG
0.0183

Tell us which PBM E-score value is on record for CAGCCGGC
0.324

Tell us which PBM E-score value is on record for GGGATCCC
0.374

Tell us which PBM E-score value is on record for CCGGTCCC
0.312

Tell us which PBM E-score value is on record for ATATACCC
0.102

Tell us which PBM E-score value is on record for GGCCCCGA
0.181

Tell us which PBM E-score value is on record for CAGCCGAA
0.0741

Tell us which PBM E-score value is on record for CAGTCTTC
-0.147

Tell us which PBM E-score value is on record for GACGTATC
-0.0675

Tell us which PBM E-score value is on record for ATCCTTGG
-0.0819

Tell us which PBM E-score value is on record for AAGCCGGT
0.199

Tell us which PBM E-score value is on record for ACACCACT
0.108

Tell us which PBM E-score value is on record for CACCGGAG
0.253

Tell us which PBM E-score value is on record for CTCCGGAG
0.476

Tell us which PBM E-score value is on record for CTCCGAAG
0.311

* * *

Biological target: Pdr3 (UniProt P33200)
Sequence: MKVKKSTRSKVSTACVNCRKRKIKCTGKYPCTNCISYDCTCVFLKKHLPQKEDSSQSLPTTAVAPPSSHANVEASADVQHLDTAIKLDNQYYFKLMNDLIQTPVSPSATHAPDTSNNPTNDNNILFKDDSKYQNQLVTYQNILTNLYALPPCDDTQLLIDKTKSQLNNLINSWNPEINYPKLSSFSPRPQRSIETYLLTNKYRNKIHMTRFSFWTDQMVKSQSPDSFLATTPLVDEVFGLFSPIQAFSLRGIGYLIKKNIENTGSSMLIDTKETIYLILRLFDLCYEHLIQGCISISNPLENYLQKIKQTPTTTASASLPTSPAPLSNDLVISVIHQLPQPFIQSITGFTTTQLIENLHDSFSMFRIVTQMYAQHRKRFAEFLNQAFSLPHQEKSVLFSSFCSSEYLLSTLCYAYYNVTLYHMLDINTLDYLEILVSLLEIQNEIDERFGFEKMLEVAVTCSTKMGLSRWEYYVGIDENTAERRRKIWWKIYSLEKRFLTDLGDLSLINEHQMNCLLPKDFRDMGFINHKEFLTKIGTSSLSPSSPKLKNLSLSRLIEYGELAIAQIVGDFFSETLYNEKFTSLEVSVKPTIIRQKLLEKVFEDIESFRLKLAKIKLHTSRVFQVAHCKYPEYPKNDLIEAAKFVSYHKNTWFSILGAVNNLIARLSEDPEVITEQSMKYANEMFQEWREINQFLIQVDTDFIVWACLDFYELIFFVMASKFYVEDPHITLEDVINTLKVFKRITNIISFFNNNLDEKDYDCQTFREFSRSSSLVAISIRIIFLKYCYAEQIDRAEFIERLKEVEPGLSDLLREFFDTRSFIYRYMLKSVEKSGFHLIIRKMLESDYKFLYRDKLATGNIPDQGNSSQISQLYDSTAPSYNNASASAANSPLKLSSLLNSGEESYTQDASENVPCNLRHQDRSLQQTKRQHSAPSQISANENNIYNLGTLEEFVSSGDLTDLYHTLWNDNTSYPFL
Test: PBM E-score (8-mer binding enrichment) (E-score (-0.5 to 0.5)); higher = stronger / more preferred TF binding
Conditions: protein concentration: 200 nM; construct: GST-full length
Whole data set: some 33,000 sequences, median “E-score (-0.5 to 0.5)” near -0.035, cut for the highest 2% near 0.35. The list comes from a sample in which the highest values are over-represented; it also holds close analogues and randomly drawn sequences.
assay_endpoint: PBM E-score
No unit in the answer, only the number.

{"columns": ["polymer_sequence", "measured_number"],
 "data": [
  ["AAACCCGG", 0.401],
  ["AAGGAACC", 0.217],
  ["AGGGAACT", 0.0568],
  ["CCGGACCC", 0.379],
  ["GACCCGCA", 0.0817],
  ["CCGGAACG", 0.475]
]}

Tell us which PBM E-score value is on record for CAGGACCG
-0.0353

Tell us which PBM E-score value is on record for AGGGACCG
-0.128

Tell us which PBM E-score value is on record for ACGGAACT
0.48

Tell us which PBM E-score value is on record for GCGGACCC
0.336

Tell us which PBM E-score value is on record for CAGGAACG
-0.0257

Data provenance: the supplement of paper PMC3334620
